tested on: BHK-21 cells; test: Cytotoxicity assay in BHK-21 cells; type: cell-based, Hamster; details: concentrations up to 20 μM
observed property: cytotoxicity (in words)

INSERT INTO results (chem_smiles, result) VALUES
  ('Nc1ncnc2c1c(/C=N\O)cn2[C@@H]1O[C@H](CO)[C@@H](O)[C@H]1O', 'high cytotoxicity'),
  ('Nc1ncnc2c1ccn2[C@@H]1O[C@H](CO)[C@@H](O)[C@H]1O', 'high cytotoxicity');

###

tested on: HCoV-OC43; assay: Resazurin reduction assay, HCoV-OC43-infected MRC5 cells; conditions: read-out: HCoV-OC43 EC50; MRC5 cells, resazurin reduction assay, rescreening of nine tubercidin derivatives
pEC50: −log10 of the molar value.
# pEC50 listing for each entry below

INSERT INTO measurements (compound, result) VALUES
  ('N#Cc1cn([C@@H]2O[C@H](CO)[C@@H](O)[C@H]2O)c2ncnc(N)c12 [HUP1109]', '< 5.00');

// below: pEC50 requested for another compound
Query: Give the measured pEC50 for Nc1ncnc2c1c([N+](=O)[O-])cn2[C@@H]1O[C@H](CO)[C@@H](O)[C@H]1O [HUP1078]
Reply: < 5.00

All figures here come from paper PMC8433052.
